- Tested on: A-375
- TEST NAME: Inhibition of RNA synthesis in human A-375 cells at 5 uM incubated for 24 hrs by EU incorporation based flow cytometry analysis
- Format: functional, cell-based
The source made the active and inactive calls. The calls are words filed in the database; no cut-off is given here.
MEASURED METRIC: inhibition

Worked cases, inhibition given:
INSERT INTO results (smiles_repr, observed_measurement) VALUES
  ('COc1ccc2c(c[n+](C)c3c4cc5c(cc4ccc23)OCO5)c1OC', 'Active'),
  ('C[n+]1cc2c3c(ccc2c2ccc4cc5c(cc4c21)OCO5)OCO3', 'Active'),
  ('c1c2c(cc3c1OCO3)-c1cc3ccc4c(c3c[n+]1CC2)OCO4', 'inactive'),
  ('COc1ccc2cc3[n+](cc2c1OC)CCc1cc2c(cc1-3)OCO2', 'inactive');

Now look at this entry.
Indicate the recorded inhibition value for this compound: COc1cc2c[n+](C)c3c4cc5c(cc4ccc3c2cc1OC)OCO5 Active

----------
- System: A-375
- TEST NAME: Inhibition of DNA synthesis in human A-375 cells at 5 uM incubated for 24 hrs by Edu incorporation based flow cytometry analysis
- Type: functional, cell-based
Calls of active or inactive are those of the source. No cut-off for these calls is given here.
Pick one and only one: active, inactive

Consider the worked cases shown below.
INSERT INTO measurements (smiles_repr, qualitative_label) VALUES
  ('C[n+]1cc2c3c(ccc2c2ccc4cc5c(cc4c21)OCO5)OCO3', 'active'),
  ('COc1cc2c[n+](C)c3c4cc5c(cc4ccc3c2cc1OC)OCO5', 'active'),
  ('c1c2c(cc3c1OCO3)-c1cc3ccc4c(c3c[n+]1CC2)OCO4', 'inactive'),
  ('COc1ccc2c(c[n+](C)c3c4cc5c(cc4ccc23)OCO5)c1OC', 'active');

With those in mind, consider the next compound.
I would be grateful if you could indicate the recorded call for COc1ccc2cc3[n+](cc2c1OC)CCc1cc2c(cc1-3)OCO2 . inactive

----------
- SYSTEM: dsDNA
- TEST NAME: Binding affinity to double stranded DNA AT12 (unknown origin) incubated for 0.5 hrs in presence of different concentration DNA by fluorescence spectra analysis
- Type: nucleic-acid assay
The following compounds are shown together with reported EC50 values.
Field: numeric (µM). Do not append units.

INSERT INTO measurements (compound, measured_metric, observed_measurement) VALUES
  ('COc1ccc2cc3[n+](cc2c1OC)CCc1cc2c(cc1-3)OCO2 [BERBERINE]', 'EC50', 0.13),
  ('C[n+]1cc2c3c(ccc2c2ccc4cc5c(cc4c21)OCO5)OCO3 [SANGUINARIUM]', 'EC50', 4.15),
  ('COc1ccc2c(c[n+](C)c3c4cc5c(cc4ccc23)OCO5)c1OC [CHELERYTHRINE]', 'EC50', 2.11);

Turning to the following compound.
Give the reported value of EC50 for this record: c1c2c(cc3c1OCO3)-c1cc3ccc4c(c3c[n+]1CC2)OCO4 [COPTISINE] 18.5

----------
- Test system: Quadruplex DNA
- TEST NAME: Binding affinity to human G4-quadruplex VEGF DNA 5'- GGGCGGGCCGGGGGCGGG-3' assessed as change in fluorescence intensity at 1 uM incubated for 0.5 hrs by fluorescence spectra analysis
- Type: nucleic-acid assay
Activity calls are given as the source filed them. No cut-off for these calls is given here.
MEASURED METRIC: Activity

INSERT INTO results (smiles_repr, observed_measurement) VALUES
  ('c1c2c(cc3c1OCO3)-c1cc3ccc4c(c3c[n+]1CC2)OCO4', 'Active'),
  ('COc1ccc2c(c[n+](C)c3c4cc5c(cc4ccc23)OCO5)c1OC', 'Active'),
  ('COc1ccc2cc3[n+](cc2c1OC)CCc1cc2c(cc1-3)OCO2', 'Active'),
  ('C[n+]1cc2c3c(ccc2c2ccc4cc5c(cc4c21)OCO5)OCO3', 'Active');
